Target: CYP1A2 (Homo sapiens, UniProt P05177)
Sequence (P05177 1-516): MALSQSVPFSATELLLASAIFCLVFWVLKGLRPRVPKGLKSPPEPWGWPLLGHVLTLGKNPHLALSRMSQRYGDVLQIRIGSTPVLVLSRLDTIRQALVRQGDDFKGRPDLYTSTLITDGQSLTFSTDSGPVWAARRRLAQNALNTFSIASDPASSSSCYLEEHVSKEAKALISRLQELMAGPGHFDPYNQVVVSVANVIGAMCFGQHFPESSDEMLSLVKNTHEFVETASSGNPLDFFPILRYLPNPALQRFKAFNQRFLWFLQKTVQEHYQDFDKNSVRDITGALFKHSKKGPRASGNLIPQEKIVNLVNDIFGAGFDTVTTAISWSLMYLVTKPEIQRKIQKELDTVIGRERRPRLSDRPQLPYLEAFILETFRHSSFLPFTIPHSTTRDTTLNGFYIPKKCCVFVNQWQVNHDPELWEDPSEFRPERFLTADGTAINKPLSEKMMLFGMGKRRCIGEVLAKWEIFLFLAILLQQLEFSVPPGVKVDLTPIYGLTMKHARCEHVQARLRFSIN
Assay: CYP450 drug metabolism inhibition, 1A2
Assay type: in vitro ADME
Details: criterion remaining activity >50%
Protocol: In order to analyze the drug metabolism of PMSA compound, ADME evaluation was requested to the Daegu-Gyeongbuk Advanced Medical industry Promotion Foundation (DGMIF). Metabolic stability of drugs using liver microsomes (microsomal stability), drug metabolism inhibitory ability by five CYP450 enzymes, plasma metabolism (plasma stability), plasma protein binding, and intestinal permeability of drugs (PAMPA, parallel artificial membrane permeability assay) were analyzed. […]
Assign labels as follows, please: satisfied for CYP 1A2 remaining activity below 90%; not satisfied for CYP 1A2 remaining activity equal to or exceeding 90%.

Please review the following examples before continuing.
Cc1cc(C)cc(N([C@@H](C)C(=O)Nc2ccccc2Sc2ccccc2)S(C)(=O)=O)c1 | satisfied
CC(=O)c1cccc(N(CC(=O)Nc2ccccc2Sc2ccccc2)S(C)(=O)=O)c1 | satisfied
CC(=O)c1cccc(N(CC(=O)Nc2ccccc2Oc2ccccc2)S(C)(=O)=O)c1 | not satisfied
CC(=O)c1cccc(N(CC(=O)Nc2ccccc2Nc2ccccc2)S(C)(=O)=O)c1 | satisfied
CC(=O)c1cccc(N(CC(=O)Nc2ccccc2-c2ccccc2)S(C)(=O)=O)c1 | not satisfied

--- query ---
Is it true that CYP 1A2 remaining activity reported for COc1ccc(Cl)cc1N(CC(=O)Nc1ccccc1Sc1ccccc1)S(C)(=O)=O is less than 90%?
satisfied
